Test system: K4 kissing-loop RNA reporter;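 also: bound reporter read as fluorescence of individual clusters on recovered sequencing chips by microscopy, with normalized cluster intensities fitted with a binding model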
Experiment: apparent KD of K4 kissing-loop reporter; higher = weaker reporter binding
Details: Eterna round: R107; input ligand: none
attributeMeasured: apparent KD of K4 kissing-loop reporter (nM)

[[record]]
polymersequence = "CACUUACGUAGUGAUGUUACGAUCUCUGAUACCAGACAACUCUAAGUCCCUUGGCAGCAGUCAUUUUGCUUUUAAUUUACUCAAA [JR_ExcTheophyA_Sub014]"
obsvalue = 682

[[record]]
polymersequence = "GCCGUAGAUGGAAGGAGCGUGCCUUUCAGUUAUAGUGAUGUUAUAACCGAGGAACGGUUGGCACAGGUAGGUCGCCAUCUACGGC"
obsvalue = 109

[[record]]
polymersequence = "UGUGUACCGGGAAGGAGCGUGAAUGAGAAUGGAUAUAGUGAUGUUAUAUAUACGAACGAAUCGCAGGUAGGUCGCCCGGAUCCCU [SSArgB.Y]"
obsvalue = 432

[[record]]
polymersequence = "AGGACGGUUAUGGAUACCAGUCCGGAACUUGUCCAUGGAGUGAUGUUCCGUCCAGCUCCGGACCCUUGGCAGCCAGACUGCUGAA [theeternabot_sameState_KL_Theo_B_41]"
obsvalue = 192

[[record]]
polymersequence = "GGUAGCAUGGCGGCCGCCACUUCAAGUGGAGUGAUGUUCCACGGCAUCGCGAAAGCGAUGCCUGGAAGGACCGGGCCAUGCUACC"
obsvalue = 720

[[record]]
polymersequence = "AAGUCAUAUAGAAGGAGCGUGUUUUAUAAUUUAUUUUCAUGAUCGAGUGAUGUUCGAUAUACACAGGUAGGUCGCUGUAUAAUAA [hbob_SS_Arginine_B_2t140]"
obsvalue = 129

